target: Human SARS-CoV-2_Wuhan S (SmT1) (SARS-CoV-2 (Wuhan), UniProt P0DTC2 14-1208); assay: flow cytometry SVNA, VHH vs biotin-S binding to Vero E6 ACE2
Test Readout: IC99 (nM)
Numbers only, in nM.

Examples from the recorded data:
NRCoV2-MRed04 VHH (VHH) VHH: EVQLVESGGGLVQPGRSLRLSCAASGNSFSISTMGWFRQAPGKERELVASIWSDTTTSYADSVKGRFTISTDNTRTKVYLQMSSLNPEDTAVYYCAADRGFVVRGQYDYWGQGTQVTVSS    124
NRCoV2-15 VHH (VHH) VHH: EVQLVSSGGGLVEAGGSLRLSCIASGSTSGRNTMGWFRQAPGKQREWVAIVSTSGATNYAGSVKGRFTLSRDNAKNAVYLQMNNLKPEDTAVYYCYAAYGGGGDYWGQGTQVTVSS    233
NRCoV2-20 VHH (VHH) VHH: EVQLQQSGGGLVQPGGSLRLSCAASGRTFSNYVVGWFRQAPQAPGKDHEFVAVISGSDTETYYADSVKGRFTISRDNAKNTVYLQMNSLKPEDTAVYYCAADRGMSYYYTRATEYYYWGQGTQVTVSS    1370

Alright, here's another binder for you.
Asked: What IC99 value was documented for this binder, NRCoV2-02 VHH (VHH) VHH: EVQLVESGGGLVQAGGSLRLSCAASGFTFSNYAMNWVRQAPGKGLEWVSGISGRGDDTRYADSVKGRFTISRDNAKNTLFLQMRSLRPEDTGVYRCTKGPDLYYFGSGYSDRGQGTQVTVSS ?
Given back: 15.5
